The compounds listed here are annotated with their pKi.
Target: 5-hydroxytryptamine receptor 1A (Rattus norvegicus, UniProt P19327)
Sequence (P19327 whole entry): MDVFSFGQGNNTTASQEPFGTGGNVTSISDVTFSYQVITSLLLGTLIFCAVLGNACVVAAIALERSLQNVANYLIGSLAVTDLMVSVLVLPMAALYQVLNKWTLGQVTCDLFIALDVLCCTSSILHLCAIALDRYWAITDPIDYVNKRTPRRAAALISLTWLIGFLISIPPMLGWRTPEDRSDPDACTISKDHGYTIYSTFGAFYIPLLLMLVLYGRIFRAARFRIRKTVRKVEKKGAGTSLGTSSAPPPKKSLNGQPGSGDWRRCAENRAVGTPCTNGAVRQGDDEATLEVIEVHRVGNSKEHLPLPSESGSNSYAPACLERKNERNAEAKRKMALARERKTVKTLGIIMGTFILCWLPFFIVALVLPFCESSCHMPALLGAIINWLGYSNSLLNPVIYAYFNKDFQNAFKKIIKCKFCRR
pKi: −log10 of the molar value.
reported.property: pKi

* COc1ccc2ccccc2c1OCCNC[C@H]1COc2cc3c(cc2O1)CCCC3 | 5.77
* COc1ccc2ccccc2c1OCCNC[C@H]1COc2ccccc2O1 | 7.95
* COc1cc(-c2ccccc2)ccc1OCCNC[C@H]1COc2ccccc2O1 | 7.13
* COc1ccc(-c2ccccc2)cc1OCCNC[C@@H]1COc2ccccc2O1 | 6.44
* COc1ccc2c(c1OCCNC[C@@H]1COc3ccccc3O1)CCCC2 | 6.88
* COc1cccc(OC)c1OCCNC[C@H]1COc2ccccc2O1.Cl | 8.61
